Molecular target: T1, full-length untagged human GPNMB expressed on cells (human, UniProt Q14956 23-572)
T1 sequence: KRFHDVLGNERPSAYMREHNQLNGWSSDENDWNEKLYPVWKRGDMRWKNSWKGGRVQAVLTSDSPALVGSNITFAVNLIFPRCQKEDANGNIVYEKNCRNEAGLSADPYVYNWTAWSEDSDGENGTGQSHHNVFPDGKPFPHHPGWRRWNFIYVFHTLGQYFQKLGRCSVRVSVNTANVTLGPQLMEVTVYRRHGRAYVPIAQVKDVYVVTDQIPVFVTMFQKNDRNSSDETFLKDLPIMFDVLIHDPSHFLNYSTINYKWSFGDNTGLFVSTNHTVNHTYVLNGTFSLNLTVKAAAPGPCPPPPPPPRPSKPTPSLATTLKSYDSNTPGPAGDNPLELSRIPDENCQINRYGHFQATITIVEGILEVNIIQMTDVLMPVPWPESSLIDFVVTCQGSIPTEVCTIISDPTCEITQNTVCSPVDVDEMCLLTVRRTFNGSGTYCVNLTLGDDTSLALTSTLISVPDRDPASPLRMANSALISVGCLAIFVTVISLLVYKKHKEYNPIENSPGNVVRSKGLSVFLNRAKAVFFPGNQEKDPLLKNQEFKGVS
Experiment: cell-based or functional assay
quantityMeasured: PDL1 (FoB)
The answer is to be given in FoB; state only the numeric part.

Lab book: PDL1 (FoB) of anti-GPNMB antibody GPN-38 (antibody, human IgG1, V domains shown, chimeric) VH: QVQLQQPGAELVRPGTSVRLSCKASGYTFTSYWIHWVKQRPGRGLEWIGVIDPSDSYTNYNQQFNVKATLTVDTSSSAAYMQLSSLTSEDSAVYYCARGLITAVNWYFDVWGTGTTVTVSS VL: DIQMTQSPASLSTSVGEIVTITCRASENIYSYLTWYQQKQGKSPQLLVYNAKTLAEGVPSRFSGSGSGTQFSLKINSLQPEDFGTYYCQHHYGTPLTFGSGTKLEIK noted as 1.03

Just so you know, measured PDL1 (FoB) for anti-GPNMB antibody GPN-09 (antibody, human IgG1, V domains shown, chimeric) VH: QVQLQQSGAELVKPGASVKLSCKASGYTFTSYYIYWVKQRPGQGLEWIGEINPSNGGTYFNEKFKNKATLTVDKSSSTAYMQLSSLTSEDSAVYYCTRGGNYYAYWGQGTLVTVSA VL: DIQMTQSPSSLSASLGERVSLTCRASQEISGHLGWLQQKPDGTIKRLIYAALTLDSGVPKRFSGSRSGSDYSLTISSLESEDFADYYCLQYASYPYTFGGGTKLEIK came out at 1.5

So for anti-GPNMB antibody GPN-34 (antibody, human IgG1, V domains shown, chimeric) VH: EVKLVESGGGLVQPGRSLKLSCAASGFNFYDYWMGWVRQAPGKGLEWIGEINKDSRTINYTPFLKDRFTISRDNAQNTLYLQMSKLGSEDTAIYYCAREGRVPFDYWGQGVMVTVSS VL: DIQMTQSPSSMSVSLGDTVTIPCRASQDVGSYVNWFQQKPGKSPRHMIYRATNLADGVPSRFSGSRSGADYSLTISSLESEDVADYHCQQYAEYPLTFGSGTKLEIK , the logged PDL1 (FoB) turned out to be 1.56

PDL1 (FoB) recorded for this binder, anti-GPNMB antibody GPN-35 (antibody, human IgG1, V domains shown, chimeric) VH: EVQLVESGGGSVRPGRSLKLSCAAAGFTFSDYYMTWVRQAPTKGLEWVASINHDGGGTYYRDSVKGRFTISRDNARSSLYLQMDSLRSEDTGTYYCTTRAGWHWGQGVMVTVSS VL: DIQMTQSPASLSASLGETVSIECLASEDIYNYLTWYQQKPGKSPQVLIYSASGLQDGVPSRFSGSGSGRQYSLKINGLESEDAATYFCLQDSEYPLTFGSGTKLEIK , is 1.3

Memo: anti-GPNMB antibody GPN-26 (antibody, human IgG1, V domains shown, chimeric) VH: EVQLQQSGPELVKPGASVKISCKASGYSFTGYYMNWVRQSPEKSLEWIGEINPSTGITTYNQKFKAKATLTVDKSSNTAFMQLKSLTSEDSAVYYCARPASWFDYWGQGTLVTVSA VL: DIQMTQSPSSLSASLGERVSLTCRASQEISGHLSWLQQKPDGTIKRLIYAASTLDSGVPKRFSGSRSGSDYSLTISSLESEDFADYYCLQYASYPYTFGGGTKLEIK , reported PDL1 (FoB): 1.88
